- Method Notes: Displacement of [3H]WAY100635 from 5HT1A receptor in pig cerebral cortex homogenate
Response field label: string, one of True (Ki strictly below 2 µM) or False.

Task: Hello, is Ki of the following compound strictly smaller than 2 µM? C#CC1=CCC(N(CCC)CCCCn2cc(-c3ccc(-c4ccccc4)cc3)nn2)CC1 (stereo not given)
Output: False

Task: Hello, is Ki of the following compound strictly smaller than 2 µM? CC#CC1=CCC(N(CCC)CCCCn2cc(C)nn2)CC1 (stereo not given)
Output: True

Task: Hello, is Ki of the following compound strictly smaller than 2 µM? CCCN(CCCCNC(=O)c1ccc(-c2ccccc2)cc1)C1CCCCC1
Output: True

Task: Hello, is Ki of the following compound strictly smaller than 2 µM? CCCN(CCCCNC(=O)c1ccc(-c2ccccc2)cc1)C1CC=C(C#Cc2ccccc2)CC1 (stereo not given)
Output: False

Task: Hello, is Ki of the following compound strictly smaller than 2 µM? CCCNCCCCNC(=O)c1ccc(-c2ccccc2)cc1
Output: False

Task: Hello, is Ki of the following compound strictly smaller than 2 µM? CCCN(CCCCn1cc(-c2ccc(-c3ccccc3)cc2)nn1)C1CC=C(C#C[Si](C)(C)C)CC1 (stereo not given)
Output: False

Task: Hello, is Ki of the following compound strictly smaller than 2 µM? CCCN(CCCCn1cc(-c2ccc(-c3ccccc3)cc2)nn1)C1CC=C(C#Cc2ccccc2)CC1 (stereo not given)
Output: False

Task: Hello, is Ki of the following compound strictly smaller than 2 µM? C#CC1=CCC(N(CCC)CCCCNC(=O)c2ccc(-c3ccccc3)cc2)CC1 (stereo not given)
Output: True

Task: Hello, is Ki of the following compound strictly smaller than 2 µM? CCCN(CCCCNC(=O)c1ccc(-c2ccccc2)cc1)C1CC=C(C#C[Si](C)(C)C)CC1 (stereo not given)
Output: True

Task: Hello, is Ki of the following compound strictly smaller than 2 µM? CCCN(CCC)CCCCNC(=O)c1ccc(-c2ccccc2)cc1
Output: False

====

For each entry below, report its pKi value.
- Assay System: D(2) dopamine receptor (Homo sapiens)
- Sequence (P14416 whole entry): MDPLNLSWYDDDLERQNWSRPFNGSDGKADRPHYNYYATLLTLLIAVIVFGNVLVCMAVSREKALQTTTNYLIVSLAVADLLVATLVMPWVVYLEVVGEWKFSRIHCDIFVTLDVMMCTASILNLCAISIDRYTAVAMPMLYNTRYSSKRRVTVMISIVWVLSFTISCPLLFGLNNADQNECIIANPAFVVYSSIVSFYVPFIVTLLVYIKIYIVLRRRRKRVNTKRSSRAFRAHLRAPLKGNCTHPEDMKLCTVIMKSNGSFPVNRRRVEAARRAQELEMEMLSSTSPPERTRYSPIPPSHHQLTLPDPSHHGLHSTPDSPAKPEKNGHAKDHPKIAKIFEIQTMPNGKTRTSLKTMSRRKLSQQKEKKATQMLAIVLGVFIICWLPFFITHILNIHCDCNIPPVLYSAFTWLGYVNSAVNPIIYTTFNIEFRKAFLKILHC
- Method Notes: Displacement of [3H]spiperone from human D2short receptor expressed in CHO cells
- Type: cell-based
pKi here is simply -log10 of the concentration when that concentration is written in mol/L.

The recorded pKi for entry CCCN(CCCCNC(=O)c1ccc(-c2ccccc2)cc1)C1CC=C(C#Cc2ccccc2)CC1 (stereo not given) equals 5.33

The recorded pKi for entry CCCN(CCCCNC(=O)c1ccc(-c2ccccc2)cc1)C1CCCCC1 equals 5.20

The recorded pKi for entry CC#CC1=CCC(N(CCC)CCCCn2cc(C)nn2)CC1 (stereo not given) equals 5.68

The recorded pKi for entry CCCN(CCC)CCCCNC(=O)c1ccc(-c2ccccc2)cc1 equals 5.06

The recorded pKi for entry CCCN(CCCCNC(=O)c1ccc(-c2ccccc2)cc1)C1CC=C(C#C[Si](C)(C)C)CC1 (stereo not given) equals 6.44

====

Target protein (sequence): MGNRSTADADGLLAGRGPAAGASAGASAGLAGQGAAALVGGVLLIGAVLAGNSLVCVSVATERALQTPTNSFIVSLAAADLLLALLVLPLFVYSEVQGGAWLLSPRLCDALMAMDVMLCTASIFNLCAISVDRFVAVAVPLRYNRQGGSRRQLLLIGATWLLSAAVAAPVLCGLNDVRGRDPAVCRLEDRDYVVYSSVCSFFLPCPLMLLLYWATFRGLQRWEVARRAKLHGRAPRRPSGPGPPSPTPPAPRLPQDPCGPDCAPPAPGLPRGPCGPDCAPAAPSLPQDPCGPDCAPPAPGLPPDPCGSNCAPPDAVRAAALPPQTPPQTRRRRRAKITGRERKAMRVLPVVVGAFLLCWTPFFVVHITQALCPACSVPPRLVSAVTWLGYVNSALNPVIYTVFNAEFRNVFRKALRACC
pKi: −log10 of the molar value.
Assign yes (1) whenever pKi does not fall below 7; assign no (0) whenever it does.

Task: Is pKi at least 7? Consider C#CC1=CCC(N(CCC)CCCCNC(=O)c2ccc(-c3ccccc3)cc2)CC1 (configuration not stated)
Output: yes (1)

Task: Is pKi at least 7? Consider C#CC1=CCC(N(CCC)CCCCn2cc(-c3ccc(-c4ccccc4)cc3)nn2)CC1 (configuration not stated)
Output: no (0)

Task: Is pKi at least 7? Consider CCCN(CCC)CCCCNC(=O)c1ccc(-c2ccccc2)cc1
Output: no (0)

Task: Is pKi at least 7? Consider CCCN(CCCCNC(=O)c1ccc(-c2ccccc2)cc1)C1CC=C(C#Cc2ccccc2)CC1 (configuration not stated)
Output: no (0)

Task: Is pKi at least 7? Consider CCCNCCCCNC(=O)c1ccc(-c2ccccc2)cc1
Output: no (0)
